Protocol notes: qHTS of TDP-43 Inhibitors; further: nearly all actives have a fitted effect of over 50% in size
Assay context: TDP-43 expressing yeast growth rescue, BacTiter-Glo, 24 h; series mostly up to 46.1 µM
Hit rate of the full screen: of about 410,000 compounds, about 7,200 (1.8%) were called active. Roughly 7% stayed inconclusive and do not appear here. The call rests on the fitted dose curve; in most records, active means well fitted activation curve with a large enough effect; inconclusive means small, poorly fitted or top-dose-only effect, or another doubt; inactive means no such curve, though single readings can be large or run the other way. This is one part of a sample in which actives are shown more often than they occur.
Classes to choose from: active, inactive

Reference set (5 entries):
{"Molecule": "Cc1cccc(CC(=O)Nc2cccc(-c3cn4cccnc4n3)c2)c1", "Label value": "inactive"}
{"Molecule": "COc1ccccc1N1CCN(/N=C\\C(Br)=C\\c2ccccc2)CC1", "Label value": "active"}
{"Molecule": "O=c1cc(Cn2nnc(-c3ccc(Cl)cc3)n2)nc2sccn12", "Label value": "active"}
{"Molecule": "COc1cc(OC)cc(C(=O)NNC(=O)CNC(=O)c2ccc(Br)o2)c1", "Label value": "inactive"}
{"Molecule": "COc1ccccc1N1CCN(Cc2ccc(OC)c3ccccc23)CC1", "Label value": "inactive"}

Outcome? CCOC(=O)c1c(NC(=O)Cc2coc3ccc(CC)cc23)sc2c1CCC2
inactive

Again, but for COc1ccccc1N1CCN(C2C(=O)c3ccccc3N2C(C)=O)CC1 (configuration not stated)
inactive

Try CC(=O)N1CCCc2cc(S(=O)(=O)Nc3ccc(Cl)cc3F)ccc21 next.
inactive

* * *

Protocol notes: qHTS of TDP-43 Inhibitors; further: nearly all actives have a fitted effect of over 50% in size
Assay context: TDP-43 expressing yeast growth rescue, BacTiter-Glo, 24 h; series mostly up to 46.1 µM
In all, about 410,000 compounds went through this assay and about 7,200 (1.8%) were called active. Roughly 7% stayed inconclusive and do not appear here. Calls come from the whole dose curve; as a rule, active = well fitted activation curve with a large enough effect; inconclusive = small, poorly fitted or top-dose-only effect, or another doubt; inactive = no such curve, though single readings can be large or run the other way. Only a selection was taken, and actives are over-represented in it overall.
Give your call using only these classes: 1 (yes) (active), 0 (no) (inactive)

Hi, sorry to bother you, what did the test record for Cc1ccc(C(=O)Nc2cc3c(cc2N2CCCC2)n(C)c(=O)c(=O)n3C)cc1 ?
0 (no)

Next molecule: CC1C(=O)N(Cc2cn(Cc3ccco3)nn2)CCS(=O)(=O)N1Cc1ccc(-c2cccc(CO)c2)cc1 (centres undefined)
0 (no)

Also, COc1ccc(Cn2cc(CN3CCS(=O)(=O)N(Cc4ccc(-c5cccc(Cl)c5)cc4)C(C)C3=O)nn2)cc1 (centres undefined) please.
0 (no)

What about CCCOc1ccc(C2c3c(-c4ccccc4O)n[nH]c3C(=O)N2Cc2cccnc2)cc1 (centres undefined) ?
0 (no)

What would you report for Cc1ccc(C)c(NC(=O)C2CCCN(S(=O)(=O)c3cn(C)cn3)C2)c1 (centres undefined) ?
0 (no)

* * *

Protocol notes: qHTS of TDP-43 Inhibitors; further: nearly all actives have a fitted effect of over 50% in size; further: potency means the concentration at half of the fitted maximal effect
Assay context: TDP-43 expressing yeast growth rescue, BacTiter-Glo, 24 h; series mostly up to 46.1 µM
Hit rate of the full screen: of about 410,000 compounds, about 7,200 (1.8%) were called active. Another 7% or so got no clear call; they are omitted. The list comes from a sample in which actives are over-represented; it also holds close analogues and randomly drawn compounds.
Readout: Potency

Consider the worked cases shown below.
{"Compound": "O=C(Nc1c2c(nn1-c1ccc(F)cc1)CS(=O)C2)C12CC3CC(CC(C3)C1)C2 (stereo not given)", "Readout": "Potency", "Result": "inactive"}
{"Compound": "CCCSc1nc2sc3c(c2c(=O)n1-c1cccc(Br)c1)CC(C)(C)OC3", "Readout": "Potency", "Result": "inactive"}
{"Compound": "O=C(Nc1ccc(S(=O)(=O)Nc2ncccn2)cc1)C12CC3CC(CC(C3)C1)C2", "Readout": "Potency", "Result": "inactive"}
{"Compound": "COc1ccc(Nc2ncc(C(=O)N3CCN(c4ccccc4OC)CC3)c3ccccc23)cc1", "Readout": "Potency", "Result": "inactive"}

Items follow; give Potency for each.
1. CCOC(=O)C1CCCN(C(=O)c2ccc3c(c2)sc2nc(-c4ccc(CC)cc4)cn23)C1 (stereo not given)
2. COc1ccccc1N1CCN(C(=O)c2cc3c(-c4ccc(Cl)cc4)nn(C)c3s2)CC1
3. COc1cccc(-c2cc(C(=O)N3CCN(c4ccccc4OC)CC3)no2)c1

1. inactive
2. 35.5 µM (active)
3. 22.4 µM (active)

Please supply Potency for each of the following items, keeping them in order.
1. CCS(=O)(=O)N1CCc2cc(C(=O)N3CCN(c4ccccc4OC)CC3)ccc21
2. Cn1nc(-c2ccc(Cl)cc2)c2cc(C(=O)NCc3ccco3)sc21

1: inactive; 2: inactive

# lookup: Potency of COc1ccc(CNC(=O)c2cc3c(-c4ccccc4F)nn(C)c3s2)c(OC)c1
inactive
